Record form. Attribute: koff. Fill in for each entry.
molecular target: T1, His-tagged human recombinant β-Klotho (human, UniProt Q86Z14 53-997, limits assumed); assay: Biacore, 100 nM mAb over His-tagged human β-Klotho captured on anti-His antibody
T1 construct: also called β-Klotho captured on anti-His; human β-Klotho; not shown: His tag
Answer in s⁻¹, number only, no unit symbol.

Sample 22H5 (antibody, human IgG2, lambda, V domains shown, fully human monoclonal antibody; full chains H2/L2; also called 22H5 (WT)) VH: QVTLKESGPVLVKPTETLTLTCTVSGFSLSNARMGVSWIRQPPGKALEWLAHIFSNDEKSYSTSLKSRLTISKDTSKSQVVLTMTNMDPVDTATYYCARILLVGAYYYCGMDVWGQGTTVTVSS VL: SYVLTQPPSVSVAPGQTARITCGGNNIGSQSVHWYQQKPGQAPVLVVYDDSDRPSGIPERFSGSNSGNTATLTISRVEAGDEADYYCQVWDNTSDHVVFGGGTKLTVLG ; koff observed: 0.00031

get_value(item= 22H5 variant, heavy chain C109S (antibody, human IgG2, lambda, V domains shown, variant chain entry already carries the change; also called #23, P60899.2) VH: QVTLKESGPVLVKPTETLTLTCTVSGFSLSNARMGVSWIRQPPGKALEWLAHIFSNDEKSYSTSLKSRLTISKDTSKSQVVLTMTNMDPVDTATYYCARILLVGAYYYSGMDVWGQGTTVTVSS VL: SYVLTQPPSVSVAPGQTARITCGGNNIGSQSVHWYQQKPGQAPVLVVYDDSDRPSGIPERFSGSNSGNTATLTISRVEAGDEADYYCQVWDNTSDHVVFGGGTKLTVLG , readout=koff) returns 0.0003

koff for 22H5 variant, light chain S94A (antibody, human IgG2, lambda, V domains shown, variant chain entry already carries the change; also called #6, P60898.3) VH: QVTLKESGPVLVKPTETLTLTCTVSGFSLSNARMGVSWIRQPPGKALEWLAHIFSNDEKSYSTSLKSRLTISKDTSKSQVVLTMTNMDPVDTATYYCARILLVGAYYYCGMDVWGQGTTVTVSS VL: SYVLTQPPSVSVAPGQTARITCGGNNIGSQSVHWYQQKPGQAPVLVVYDDSDRPSGIPERFSGSNSGNTATLTISRVEAGDEADYYCQVWDNTADHVVFGGGTKLTVLG is 0.00035

koff for 22H5 variant, light chain N92Q (antibody, human IgG2, lambda, V domains shown, variant chain entry already carries the change; also called #7, P60897.3) VH: QVTLKESGPVLVKPTETLTLTCTVSGFSLSNARMGVSWIRQPPGKALEWLAHIFSNDEKSYSTSLKSRLTISKDTSKSQVVLTMTNMDPVDTATYYCARILLVGAYYYCGMDVWGQGTTVTVSS VL: SYVLTQPPSVSVAPGQTARITCGGNNIGSQSVHWYQQKPGQAPVLVVYDDSDRPSGIPERFSGSNSGNTATLTISRVEAGDEADYYCQVWDQTSDHVVFGGGTKLTVLG is 0.00052
